target: Corticotropin-releasing factor receptor 2/Corticotropin-releasing factor-binding protein (Homo sapiens, UniProt P24387+Q13324); test: Dose Response confirmation of uHTS hits for small molecule antagonists of the CRF-binding protein and CRF-R2 receptor complex.; type: functional; conditions: read-out: IC50_Mean
Sequence (Q13324 whole entry): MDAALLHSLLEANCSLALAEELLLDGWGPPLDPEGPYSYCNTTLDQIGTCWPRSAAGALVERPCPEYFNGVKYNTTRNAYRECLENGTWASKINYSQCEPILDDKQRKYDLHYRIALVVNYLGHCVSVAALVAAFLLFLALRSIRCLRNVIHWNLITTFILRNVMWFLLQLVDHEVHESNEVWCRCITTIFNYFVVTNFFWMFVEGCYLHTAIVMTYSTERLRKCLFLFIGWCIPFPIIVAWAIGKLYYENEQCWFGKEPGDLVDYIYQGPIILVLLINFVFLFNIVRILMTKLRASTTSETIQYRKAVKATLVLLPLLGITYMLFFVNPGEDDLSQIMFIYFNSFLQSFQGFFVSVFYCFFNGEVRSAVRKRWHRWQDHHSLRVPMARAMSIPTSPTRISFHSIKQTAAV
Sequence (P24387 whole entry): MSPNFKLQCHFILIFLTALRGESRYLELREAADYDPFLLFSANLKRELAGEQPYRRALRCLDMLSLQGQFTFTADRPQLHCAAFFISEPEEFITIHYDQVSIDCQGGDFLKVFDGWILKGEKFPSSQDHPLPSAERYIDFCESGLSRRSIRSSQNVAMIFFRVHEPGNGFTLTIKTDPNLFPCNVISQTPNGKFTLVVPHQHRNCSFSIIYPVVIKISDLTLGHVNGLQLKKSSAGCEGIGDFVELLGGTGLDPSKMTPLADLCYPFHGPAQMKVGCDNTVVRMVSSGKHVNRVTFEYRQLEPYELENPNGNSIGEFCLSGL
Active and inactive are the calls of the source.
Outcome codes: T = active, F = inactive

Molecule: C=CCNC(=S)N/N=C/c1ccc(OCc2ccccc2)cc1
Label: F
//
Molecule: Cc1cc(C)n2nc(/C(C#N)=C/c3ccccc3)c(C#N)c2n1
Label: F
//
Molecule: Cc1nc2c(s1)sc1ccccc12
Label: F
//
Molecule: O=C(Nc1nnc(S(=O)(=O)Nc2ccccc2)s1)c1ccccc1Cl
Label: T
//
Molecule: CCOc1ccc(N(CC(=O)NC2CCC(C)CC2)S(=O)(=O)c2c(C)noc2C)cc1 (configuration not stated)
Label: F
//
Molecule: COc1ccc(N2CCN(C(=O)c3csc4ccccc34)CC2)cc1
Label: F
//
Molecule: Cc1nn(C)c(Cl)c1NC(=O)OCc1ccc(Cl)cc1Cl
Label: F
//
Molecule: CCOc1ccc(/C=N/NC(=O)CN2CCCCCCC2)cc1
Label: F
//
Molecule: Cc1ccccc1NS(=O)(=O)c1ccc(C)c(C(=O)N2CCOCC2)c1
Label: F
//
Molecule: Cc1ccc2c(c1)Oc1ccccc1N=C2
Label: F
//
Molecule: Cc1ccc(N(C(=O)Cn2nnc(-c3ccccc3)n2)C(C(=O)NC2CCCCC2)c2ccccn2)cc1C (configuration not stated)
Label: F
//
Molecule: O=C(O)c1ccc(COc2ccccc2C=C2C(=O)c3ccccc3C2=O)cc1
Label: T

---

target: Replicative DNA helicase DnaB (Mycobacterium tuberculosis, UniProt P9WMR3); assay: DnaB intein splicing inhibitors, dose response, biochemical, cell-free fluorescence (AID 449749); format: functional
Sequence (P9WMR3 1-399, added parts left off): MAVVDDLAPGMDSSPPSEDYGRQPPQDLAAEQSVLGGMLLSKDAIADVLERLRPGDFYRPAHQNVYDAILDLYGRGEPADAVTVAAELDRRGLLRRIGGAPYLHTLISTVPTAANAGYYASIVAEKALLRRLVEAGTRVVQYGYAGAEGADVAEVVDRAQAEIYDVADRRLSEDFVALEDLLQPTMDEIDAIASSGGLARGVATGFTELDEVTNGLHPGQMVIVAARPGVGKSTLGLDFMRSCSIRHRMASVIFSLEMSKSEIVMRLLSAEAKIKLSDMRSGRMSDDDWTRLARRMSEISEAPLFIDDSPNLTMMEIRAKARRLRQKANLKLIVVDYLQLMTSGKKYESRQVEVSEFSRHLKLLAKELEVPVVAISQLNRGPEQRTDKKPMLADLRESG
Active and inactive are the calls of the source.
Outcome codes: true (active), false (inactive)

Molecule: O=C(NC1=C(Nc2ccc(Cl)cc2)C(=O)c2ccccc2C1=O)c1ccccc1
Label: true

Molecule: O=C(O)c1ccc(-n2c(=O)c3ccccc3c3ccccc3c2=O)cc1
Label: true

Molecule: O=C(O)c1ccc(/C=C(\c2nc3ccccc3[nH]2)c2nc3ccccc3s2)cc1
Label: false

Molecule: CCOc1cc(CNc2ccc3c[nH]nc3c2)ccc1OC
Label: false

Molecule: Cn1nc([N+](=O)[O-])c(C(C#N)c2ccccn2)c(Cl)c1=O (stereo not given)
Label: true

Molecule: O=C1N=NC2=C1c1c3ccccc3c(O)n1CC2
Label: true

Molecule: Cc1cc2nc(Sc3c([N+](=O)[O-])nc(C)n3Cc3ccccc3)[nH]c2cc1C
Label: true

Molecule: Cc1n[nH]c(O)c1C(c1ccc(-c2ccccc2C(=O)O)o1)c1c(C)n[nH]c1O
Label: true

Molecule: COc1ccc2[nH]c3c(Cl)ncnc3c2c1
Label: false

Molecule: Cc1ccc(S(=O)(=O)/N=C2/C=C(C3C(=O)CC(C)(C)CC3=O)C(=O)c3ccccc32)cc1
Label: true

---

target: Luciferin 4-monooxygenase (Photinus pyralis, UniProt P08659); experiment: inhibition of purified Photinus pyralis luciferase – biochemical, luminescence, dose response (AID 1891)
Sequence (P08659 whole entry): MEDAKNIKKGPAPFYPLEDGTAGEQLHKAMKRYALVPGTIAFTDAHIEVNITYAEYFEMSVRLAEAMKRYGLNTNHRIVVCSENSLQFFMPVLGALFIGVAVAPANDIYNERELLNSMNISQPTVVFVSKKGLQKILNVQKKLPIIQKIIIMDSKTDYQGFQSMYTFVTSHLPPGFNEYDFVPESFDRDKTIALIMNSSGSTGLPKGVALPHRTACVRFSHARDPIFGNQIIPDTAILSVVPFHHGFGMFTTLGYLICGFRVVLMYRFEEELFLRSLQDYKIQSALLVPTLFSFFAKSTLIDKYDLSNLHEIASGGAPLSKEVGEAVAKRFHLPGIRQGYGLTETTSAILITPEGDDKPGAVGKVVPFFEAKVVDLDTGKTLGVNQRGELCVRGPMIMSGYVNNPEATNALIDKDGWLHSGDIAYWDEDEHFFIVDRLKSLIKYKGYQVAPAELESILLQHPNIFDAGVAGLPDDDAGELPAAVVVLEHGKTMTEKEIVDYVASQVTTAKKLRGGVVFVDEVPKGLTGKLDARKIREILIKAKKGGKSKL
Calls of active or inactive are those of the source.
# maps each entry to its EC50
Quantity measured: EC50

Molecule: Cc1ccc2[nH]c(-c3ccccn3)nc2c1
Tested on: Luciferin 4-monooxygenase (Photinus pyralis, UniProt P08659)
Value measured: 2.78 µM (active)
--
Molecule: CC1(C)CC(=O)C=C(NC2=CC3OC(c4ccccc4)OCC3OC2=O)C1 (stereo not given)
Tested on: Luciferin 4-monooxygenase (Photinus pyralis, UniProt P08659)
Value measured: > 112 µM (not active)
--
Molecule: CCOC(=O)C1=C(CNCc2ccccc2Cl)NC(=O)NC1c1cccc([N+](=O)[O-])c1 (stereo not given)
Tested on: Luciferin 4-monooxygenase (Photinus pyralis, UniProt P08659)
Value measured: > 112 µM (not active)
--
Molecule: COC(=O)c1nn(-c2ccc(-c3ccccc3)cc2)cc1O
Tested on: Luciferin 4-monooxygenase (Photinus pyralis, UniProt P08659)
Value measured: 1.93 µM (active)
--
Molecule: CCCc1nc2oc3c(=O)nc[nH]c3c2c2c1CCCC2
Tested on: Luciferin 4-monooxygenase (Photinus pyralis, UniProt P08659)
Value measured: > 112 µM (not active)

---

target: Nucleotide-binding oligomerization domain-containing protein 2 (Homo sapiens, UniProt Q9HC29); assay: inhibition of NOD2-driven NF-kB reporter – cell-based, luminescence, uHTS, HEK293 (AID 1566); assay type: functional
Sequence (Q9HC29 whole entry, the tested form may be a part): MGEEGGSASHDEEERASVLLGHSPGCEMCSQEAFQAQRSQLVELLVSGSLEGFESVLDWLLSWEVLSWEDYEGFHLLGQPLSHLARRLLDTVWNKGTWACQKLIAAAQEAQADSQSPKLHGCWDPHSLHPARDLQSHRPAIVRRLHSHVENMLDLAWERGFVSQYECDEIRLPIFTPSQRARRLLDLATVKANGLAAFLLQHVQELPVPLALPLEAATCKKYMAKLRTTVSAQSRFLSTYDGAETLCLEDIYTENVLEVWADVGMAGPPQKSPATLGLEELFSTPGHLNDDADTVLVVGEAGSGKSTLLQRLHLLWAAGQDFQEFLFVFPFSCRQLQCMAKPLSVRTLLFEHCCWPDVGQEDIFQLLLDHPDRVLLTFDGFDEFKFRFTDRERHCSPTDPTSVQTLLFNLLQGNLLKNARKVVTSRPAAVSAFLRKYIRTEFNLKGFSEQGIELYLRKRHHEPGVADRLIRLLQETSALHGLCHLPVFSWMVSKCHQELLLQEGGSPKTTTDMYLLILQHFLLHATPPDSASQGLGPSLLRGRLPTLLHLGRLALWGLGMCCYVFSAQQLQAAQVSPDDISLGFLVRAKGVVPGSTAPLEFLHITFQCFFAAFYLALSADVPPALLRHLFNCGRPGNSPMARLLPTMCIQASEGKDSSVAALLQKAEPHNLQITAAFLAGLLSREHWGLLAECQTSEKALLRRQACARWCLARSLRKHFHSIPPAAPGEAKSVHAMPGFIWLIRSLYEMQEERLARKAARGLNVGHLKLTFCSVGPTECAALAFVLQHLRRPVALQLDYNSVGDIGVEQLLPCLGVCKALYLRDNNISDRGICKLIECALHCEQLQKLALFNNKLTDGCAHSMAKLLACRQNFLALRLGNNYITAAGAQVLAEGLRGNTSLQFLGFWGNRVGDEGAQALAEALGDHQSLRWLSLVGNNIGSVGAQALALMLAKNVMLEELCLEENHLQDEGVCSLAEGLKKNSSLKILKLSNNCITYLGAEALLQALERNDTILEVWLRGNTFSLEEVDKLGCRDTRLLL
Activity calls are given as the source filed them.
Outcome codes: active, inactive

Compound: Oc1ccc(N=Nc2ccccc2C(F)(F)F)c2cccnc12
Label: inactive
--
Compound: COc1cc(/C=C2\CC(C(C)(C)C)C/C(=C\c3cc(OC)c(OC)c(OC)c3)C2=O)cc(OC)c1OC (centres undefined)
Label: active
--
Compound: COc1ccc(-c2c[nH]nc2-c2ccc(OCc3ccccc3F)cc2O)cc1OC
Label: inactive
--
Compound: O=C(COc1ccc2c(-c3ccccc3)cc(=O)oc2c1)Nc1cccnc1
Label: inactive

---

molecular target: Leucine aminopeptidase (Plasmodium falciparum 3D7); assay: P. falciparum M17LAP inhibitors, primary screen, biochemical, fluorogenic H-Leu-NHMec substrate, 1536-well (AID 1619); type: functional
Sequence (Q8IL11 whole entry): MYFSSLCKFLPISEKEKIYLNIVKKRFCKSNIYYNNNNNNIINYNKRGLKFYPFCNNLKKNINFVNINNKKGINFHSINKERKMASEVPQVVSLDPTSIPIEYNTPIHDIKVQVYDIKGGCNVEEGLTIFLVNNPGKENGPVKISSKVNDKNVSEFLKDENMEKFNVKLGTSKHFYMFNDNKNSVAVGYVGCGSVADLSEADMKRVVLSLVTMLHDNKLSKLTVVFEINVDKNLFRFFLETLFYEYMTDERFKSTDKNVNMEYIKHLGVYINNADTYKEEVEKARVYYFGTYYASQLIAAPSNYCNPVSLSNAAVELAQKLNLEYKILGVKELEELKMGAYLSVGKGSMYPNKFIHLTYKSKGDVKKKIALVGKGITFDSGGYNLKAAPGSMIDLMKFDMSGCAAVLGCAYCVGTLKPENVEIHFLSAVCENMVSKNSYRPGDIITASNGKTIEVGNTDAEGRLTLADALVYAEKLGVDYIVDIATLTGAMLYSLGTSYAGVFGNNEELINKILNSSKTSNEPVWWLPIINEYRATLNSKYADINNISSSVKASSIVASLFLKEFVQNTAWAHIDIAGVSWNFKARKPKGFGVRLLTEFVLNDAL
Calls of active or inactive are those of the source.
Quantity measured: IC50

Compound: O=C(CC1Sc2ccccc2NC1=O)Nc1cccc(C(=O)O)c1 (centres undefined)
Value measured: 2.94 µM (active)
--
Compound: Cc1ccccc1C(=O)Nc1nncs1
Value measured: 25.4 µM (active)
--
Compound: Cc1ccc(SCc2n[nH]c3c2C2(CCSCC2)C(C#N)=C(N)O3)cc1
Value measured: 91 µM (active)
--
Compound: CCOC(=O)c1c(NC(=O)C2C3C=CC(C3)C2C(=O)O)sc2c1CCC(C)C2 (centres undefined)
Value measured: 15.7 µM (active)

---

biological target: UniProt:Q9GZR1; assay type: functional
Sequence (Q9GZR1 whole entry): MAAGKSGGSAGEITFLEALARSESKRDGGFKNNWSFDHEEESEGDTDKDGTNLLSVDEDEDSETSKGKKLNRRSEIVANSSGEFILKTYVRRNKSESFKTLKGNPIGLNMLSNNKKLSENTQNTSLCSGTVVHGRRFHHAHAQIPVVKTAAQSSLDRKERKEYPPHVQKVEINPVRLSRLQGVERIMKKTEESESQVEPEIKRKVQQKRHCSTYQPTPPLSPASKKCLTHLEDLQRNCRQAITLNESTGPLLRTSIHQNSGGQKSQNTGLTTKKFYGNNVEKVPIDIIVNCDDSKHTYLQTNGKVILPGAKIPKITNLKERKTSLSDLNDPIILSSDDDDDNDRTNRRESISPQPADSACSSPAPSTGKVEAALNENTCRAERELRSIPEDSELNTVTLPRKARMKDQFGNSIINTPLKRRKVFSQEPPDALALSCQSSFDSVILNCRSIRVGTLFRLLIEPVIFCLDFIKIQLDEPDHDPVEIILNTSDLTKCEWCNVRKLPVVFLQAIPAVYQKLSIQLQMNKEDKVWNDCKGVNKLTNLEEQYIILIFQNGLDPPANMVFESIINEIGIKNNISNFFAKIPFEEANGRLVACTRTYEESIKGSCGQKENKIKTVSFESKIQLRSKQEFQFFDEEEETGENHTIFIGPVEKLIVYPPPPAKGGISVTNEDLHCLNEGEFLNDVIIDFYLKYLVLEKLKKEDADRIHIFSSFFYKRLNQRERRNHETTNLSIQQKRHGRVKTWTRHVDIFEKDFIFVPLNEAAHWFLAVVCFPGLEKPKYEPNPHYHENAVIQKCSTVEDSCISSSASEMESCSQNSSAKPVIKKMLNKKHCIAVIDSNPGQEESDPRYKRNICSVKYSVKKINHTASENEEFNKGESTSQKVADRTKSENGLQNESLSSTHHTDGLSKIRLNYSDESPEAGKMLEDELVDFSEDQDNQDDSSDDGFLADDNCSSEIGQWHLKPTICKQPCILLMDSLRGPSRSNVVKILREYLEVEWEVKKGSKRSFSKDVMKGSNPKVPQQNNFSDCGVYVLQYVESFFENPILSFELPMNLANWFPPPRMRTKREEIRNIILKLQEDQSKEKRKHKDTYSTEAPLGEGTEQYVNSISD
Activity calls are given as the source filed them.
Outcome codes: y (active), n (inactive)

Molecule: Cc1cccc(NC(=O)COc2ccc(Br)cc2C)n1
Label: y

Molecule: COc1ccc(NC(=O)c2cccc(Oc3ccccc3)c2)cn1
Label: y

Molecule: Cn1c(C(=O)Nc2ccc3c(c2)OCO3)cc2sccc21
Label: y

Molecule: Nc1cc(Cl)nc(N/N=C/c2c(O)ccc3ccccc23)n1
Label: n

Molecule: O=C1CN(C(=O)COC(=O)c2ccc([N+](=O)[O-])s2)c2ccccc2N1
Label: y

Molecule: c1ccc(N2CC3CCc4ccccc4C3=N2)cc1 (stereo unspecified)
Label: y

---

target: Fatty acid synthase (Homo sapiens, UniProt P49327); experiment: inhibition of human FAS-TE enzyme activity – biochemical, kinetic fluorescence intensity, dose response (AID 624326); type: functional;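 note: rate of fluorescence rise from hydrolysis of a fluorogenic O-methyl fluorescein ester substrate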
The source made the active and inactive calls.
Outcome codes: Yes for active, No for inactive

Cpd smiles: O=C(NNS(=O)(=O)c1ccc([N+](=O)[O-])cc1)c1ccc2ccccc2c1O
Tested on: Fatty acid synthase (Homo sapiens, UniProt P49327)
Label: Yes
--
Cpd smiles: N#C/C(=C\c1cccc([N+](=O)[O-])c1)C(=O)NCc1ccc(Cl)cc1
Tested on: Fatty acid synthase (Homo sapiens, UniProt P49327)
Label: Yes
--
Cpd smiles: O=C(COc1ncnc2ccccc12)Nc1ccc(Cl)c([N+](=O)[O-])c1
Tested on: Fatty acid synthase (Homo sapiens, UniProt P49327)
Label: Yes
--
Cpd smiles: Cc1cc(C)c(C)c(S(=O)(=O)ON2C(=O)c3ccccc3C2=O)c1C
Tested on: Fatty acid synthase (Homo sapiens, UniProt P49327)
Label: Yes
--
Cpd smiles: NC(=NOC(=O)CCC1CCCC1)c1cccc([N+](=O)[O-])c1
Tested on: Fatty acid synthase (Homo sapiens, UniProt P49327)
Label: Yes
--
Cpd smiles: COc1ccc(-c2csc(NC(=O)c3ccccc3NS(=O)(=O)c3ccc(C)cc3)n2)cc1
Tested on: Fatty acid synthase (Homo sapiens, UniProt P49327)
Label: Yes
--
Cpd smiles: C=C(C)CSc1ncc(-c2cccc(C(F)(F)F)c2)cn1
Tested on: Fatty acid synthase (Homo sapiens, UniProt P49327)
Label: Yes
--
Cpd smiles: CC(C)(C)NC(=O)/C(=C\C=C\c1ccccc1)NC(=O)c1ccc([N+](=O)[O-])cc1
Tested on: Fatty acid synthase (Homo sapiens, UniProt P49327)
Label: Yes
--
Cpd smiles: COCCn1/c(=N/C(=O)c2ccc(S(=O)(=O)N3CCCc4ccccc43)cc2)sc2cc(S(C)(=O)=O)ccc21
Tested on: Fatty acid synthase (Homo sapiens, UniProt P49327)
Label: No
--
Cpd smiles: O=[N+]([O-])c1cccc(-c2ccc(SCc3cccnc3)nn2)c1
Tested on: Fatty acid synthase (Homo sapiens, UniProt P49327)
Label: Yes

---

biological target: Streptokinase A (Streptococcus pyogenes serotype M1, UniProt P10520); assay: viability-normalized secreted streptokinase activity reduction – plasminogen activation absorbance, OD405, dose response (AID 1914); format: functional, Streptococcus pyogenes M1 GAS;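 note: secreted streptokinase activity via plasminogen activation per viability signal from cell pellet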
Sequence (P10520 whole entry): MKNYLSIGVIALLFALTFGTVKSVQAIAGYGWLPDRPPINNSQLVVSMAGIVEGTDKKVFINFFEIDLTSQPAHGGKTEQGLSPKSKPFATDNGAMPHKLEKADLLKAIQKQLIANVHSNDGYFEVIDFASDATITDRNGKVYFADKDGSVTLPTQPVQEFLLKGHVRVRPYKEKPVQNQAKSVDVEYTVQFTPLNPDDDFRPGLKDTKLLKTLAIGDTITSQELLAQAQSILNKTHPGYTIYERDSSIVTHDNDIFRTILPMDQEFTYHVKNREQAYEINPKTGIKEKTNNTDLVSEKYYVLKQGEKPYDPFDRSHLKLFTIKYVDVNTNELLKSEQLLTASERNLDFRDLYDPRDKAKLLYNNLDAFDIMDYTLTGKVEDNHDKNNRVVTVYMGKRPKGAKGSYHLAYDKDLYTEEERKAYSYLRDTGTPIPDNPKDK
Active and inactive are the calls of the source.
# maps each entry to its EC50

Compound: Cn1c(CNC(=O)CNC(=O)c2ccc(F)cc2)cc(=O)n(C)c1=O
Tested on: Streptokinase A (Streptococcus pyogenes serotype M1, UniProt P10520)
EC50: > 150 µM (not active)
--
Compound: OC(CNCc1ccco1)Cn1c2ccc(Br)cc2c2cc(Br)ccc21 (stereo not given)
Tested on: Streptokinase A (Streptococcus pyogenes serotype M1, UniProt P10520)
EC50: > 150 µM (not active)
--
Compound: Cc1ccc(C(=O)n2c3ccccc3c3ccccc32)cc1
Tested on: Streptokinase A (Streptococcus pyogenes serotype M1, UniProt P10520)
EC50: 6.45 µM (active)
--
Compound: COc1ccc(/C=C2/SC(N/N=C3\CC4CCC3(C)C4(C)C)=NC2=O)cc1 (stereo not given)
Tested on: Streptokinase A (Streptococcus pyogenes serotype M1, UniProt P10520)
EC50: > 150 µM (not active)
--
Compound: Nc1nc(CN2CCN(c3ccc(F)cc3)CC2)nc(N2CCCc3ccccc32)n1
Tested on: Streptokinase A (Streptococcus pyogenes serotype M1, UniProt P10520)
EC50: > 150 µM (not active)
--
Compound: Clc1ccc(/C=C/c2nc(Cl)c(-c3ccc(Cl)cc3)c(Cl)n2)cc1
Tested on: Streptokinase A (Streptococcus pyogenes serotype M1, UniProt P10520)
EC50: 10 µM (active)
--
Compound: Cc1ccc(C2C(C(=O)c3cc4ccccc4o3)=C(O)C(=O)N2c2cc(C)on2)cc1 (stereo not given)
Tested on: Streptokinase A (Streptococcus pyogenes serotype M1, UniProt P10520)
EC50: 6.3 µM (active)
--
Compound: CC(OC(=O)Cc1nnc(O)c2ccccc12)C(=O)Nc1ccc(Cl)cn1 (stereo not given)
Tested on: Streptokinase A (Streptococcus pyogenes serotype M1, UniProt P10520)
EC50: > 150 µM (not active)
--
Compound: O=C(N/N=C/c1ccc([N+](=O)[O-])o1)c1cn(-c2ccccc2)nc1-c1ccc(F)cc1
Tested on: Streptokinase A (Streptococcus pyogenes serotype M1, UniProt P10520)
EC50: > 150 µM (not active)
--
Compound: Cc1ccccc1NS(=O)(=O)c1ccc(C)c(C(=O)N2CCOCC2)c1
Tested on: Streptokinase A (Streptococcus pyogenes serotype M1, UniProt P10520)
EC50: > 150 µM (not active)

Hey, just so you know, these numbers are from ChEMBL document CHEMBL1201862.
